From: the supplement of paper PMC11208160

Protocol Details: recombinant UMI read abundance after kanamycin selection (control-corrected) (log10(CPM+1)); higher = more efficient recombination; extreme values may be limits of the assay; sequences stand for … in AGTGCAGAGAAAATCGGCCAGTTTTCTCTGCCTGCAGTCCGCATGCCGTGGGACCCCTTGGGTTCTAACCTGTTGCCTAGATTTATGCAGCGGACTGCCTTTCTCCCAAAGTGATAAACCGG…AGGTTGGTTTCACT; site = the 11-nt donor;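 note: IS621 bridge recombinase in Escherichia coli cells against a fixed T5 target plasmid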
Listed below: recombinant UMI read abundance (log10) values for each entry.
Assay Endpoint: recombinant UMI read abundance (log10)

> print(dat)
                            ordered.residues  obs.value
 1  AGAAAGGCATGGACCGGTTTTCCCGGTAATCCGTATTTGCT (site AGAGAGGCTAG)      0.846
 2  AGGCAACCATGGACCGGTTTTCCCGGTAATCCGTATTTGGG (site AGGCAACCTCC)      0.112
 3  GGAGTCGCATGGACCGGTTTTCCCGGTAATCCGTATTTGCG (site GCAGTCGCTCG)      0.021
 4  GAGCTGACATGGACCGGTTTTCCCGGTAATCCGTATTTGAT (site GAGCTGACTAT)       2.09
 5  ATGCAGACATGGACCGGTTTTCCCGGTAATCCGTATTTGCA (site ATGCAGACTTG)       2.15
 6  CTGAGGCCATGGACCGGTTTTCCCGGTAATCCGTATTTGGT (site CTGAGGCCTAC)          0
 7  GAAGGTTCATGGACCGGTTTTCCCGGTAATCCGTATTTGTT (site GAAGATTCTAA)       1.32
 8  ACGACTTCATGGACCGGTTTTCCCGGTAATCCGTATTTGTT (site ACGACTTCTAA)       1.23
 9  AAGGCCCCATGGACCGGTTTTCCCGGTAATCCGTATTTGGT (site AAGGCCCCTAC)      0.395
10  TCCAAAGCATGGACCGGTTTTCCCGGTAATCCGTATTTGAC (site GTACCGCCTAG)          0
11  CGTCCAACATGGACCGGTTTTCCCGGTAATCCGTATTTGTA (site TGTCCAACTTA)     0.0409
12  CGATCGTCATGGACCGGTTTTCCCGGTAATCCGTATTTGCT (site CGATCCTCTAG)          0
13  TTCGACCCATGGACCGGTTTTCCCGGTAATCCGTATTTGAG (site TTCGACCCTCT)    0.00989
14  GTTGACACATGGACCGGTTTTCCCGGTAATCCGTATTTGGG (site GTTGACACTCC)      0.371
15  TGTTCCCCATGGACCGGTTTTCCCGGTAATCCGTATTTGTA (site TGTTCCCCTAA)     0.0105
16  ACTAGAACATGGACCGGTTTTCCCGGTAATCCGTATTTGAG (site ACTATAACTCT)       1.22
17  GAAGGTTCATGGACCGGTTTTCCCGGTAATCCGTATTTGTT (site GAAGTTTCTAA)          0
18  CAGCCGACATGGACCGGTTTTCCCGGTAATCCGTATTTGGG (site CAGACGACTCC)     0.0262
